- procedureText: S16 Schwann cell viability assay (CellTiter-Glo assay) (AID 624031); further: nearly all actives have a fitted effect of over 70% in size
- conditionSummary: S16 rat Schwann cells viability, 24 h; series mostly up to 57.5 µM
Records with an inconclusive call do not appear. Calls of active or inactive are those of the source. The call rests on the fitted dose curve; in most records, active means well fitted cell-killing curve with a large enough effect; inconclusive means small, poorly fitted or top-dose-only effect, or effect the other way; inactive means flat fitted curve, though single readings scatter.
Pick from active, inactive when you respond.

smiles | assignedCategory
O=C(OCCOCCO)c1ccccc1Nc1cccc(C(F)(F)F)c1 | inactive
CCOc1ccc2nc3cc(N)ccc3c(N)c2c1 | active
O=C(CCCN1CCC(O)(c2ccc(Br)cc2)CC1)c1ccc(F)cc1 | inactive
Nc1ccc(C(=O)Nc2ccccc2N)cc1 | inactive
NCCCC[C@H](N[C@@H](CCc1ccccc1)C(=O)O)C(=O)N1CCC[C@H]1C(=O)O | inactive

Name the outcome recorded for Cc1ccnc(NS(=O)(=O)c2ccc(N)cc2)n1 in the assay.
inactive

Name the outcome recorded for CC[N+](CC)(CCNC(=O)C(=O)NCC[N+](CC)(CC)Cc1ccccc1Cl)Cc1ccccc1Cl in the assay.
inactive

Name the outcome recorded for CCC(=O)c1c(O)cc(O)cc1O in the assay.
inactive

Name the outcome recorded for Cc1cccn2c(=O)c(-c3nnn[nH]3)cnc12 in the assay.
inactive

Name the outcome recorded for Cc1ncc(CSSCc2cnc(C)c(O)c2CO)c(CO)c1O in the assay.
inactive

Name the outcome recorded for CC(=O)c1ccc2c(c1)N(CCCN1CCC(CCO)CC1)c1ccccc1S2 in the assay.
inactive
